Endpoint summary: log10(Ki), system: Alpha-2A adrenergic receptor (Homo sapiens, UniProt P08913), multiple sources combined.
Each number you see is log10 of Ki, and the unit inside the log is nM.

Solved cases (3 shown):
>  <molecule>
O=C(CCCNC(=O)[C@@H]1C2C[C@H]3c4[nH]c5ccccc5c4CCN3C[C@@H]2CC[C@@H]1O)OCc1ccccc1 (some centres undefined)

>  <log10(Ki)>
1.46

$$$$
>  <molecule>
Clc1ccc2c(c1)N=C(N1CCN(C3CCCCC3)CC1)c1cccnc1O2

>  <log10(Ki)>
2.61

$$$$
>  <molecule>
COc1cc2c(cc1OC)C1=NO[C@@H](CN3CCN(C/C=C/c4cccc(F)c4)CC3)[C@@H]1CO2

>  <log10(Ki)>
0.77

$$$$

Reading of log10(Ki) for COc1ccccc1N1CCN(CCCNC(=O)NN(Cc2ccc(F)cc2)c2ccccc2)CC1 with Alpha-2A adrenergic receptor (Homo sapiens, UniProt P08913): 2.93

Reading of log10(Ki) for CN(C)c1ccc(NC(=N)Nc2ccccc2)cc1 with Alpha-2A adrenergic receptor (Homo sapiens, UniProt P08913): 2.59

Reading of log10(Ki) for O=C(NCCCn1ccnc1)c1cc2nc(-c3ccccc3)cc(-c3ccccc3)n2n1 with Alpha-2A adrenergic receptor (Homo sapiens, UniProt P08913): 3.58

Reading of log10(Ki) for CCOP(=O)(OCC)C1(c2ccccc2)N=CC2C(=O)N(C3Cc4ccccc4C3)C(=O)C21 (racemic) with Alpha-2A adrenergic receptor (Homo sapiens, UniProt P08913): 5.56

* * *

Endpoint summary: log10 of Ki, system: Alpha-2A adrenergic receptor (Homo sapiens), multiple sources combined.
Target: Alpha-2A adrenergic receptor (Homo sapiens)
Sequence (P08913 whole entry): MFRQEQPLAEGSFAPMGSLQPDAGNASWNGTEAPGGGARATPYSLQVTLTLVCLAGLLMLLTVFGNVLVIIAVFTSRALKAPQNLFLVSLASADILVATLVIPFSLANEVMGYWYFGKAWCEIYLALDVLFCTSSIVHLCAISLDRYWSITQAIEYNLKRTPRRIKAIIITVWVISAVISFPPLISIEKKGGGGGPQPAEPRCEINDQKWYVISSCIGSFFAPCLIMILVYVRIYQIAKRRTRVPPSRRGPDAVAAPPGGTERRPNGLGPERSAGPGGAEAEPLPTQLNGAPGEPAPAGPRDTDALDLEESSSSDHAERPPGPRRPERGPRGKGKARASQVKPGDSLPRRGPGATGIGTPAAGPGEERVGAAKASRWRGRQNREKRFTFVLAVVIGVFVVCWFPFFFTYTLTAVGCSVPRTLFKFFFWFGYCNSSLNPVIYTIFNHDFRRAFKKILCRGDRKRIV
Each number you see is log10 of Ki, and the unit inside the log is nM.

Solved cases (5 shown):
>  <compound>
N=C(Nc1ccccc1)Nc1ccc2c(c1)OCO2

>  <log10 of Ki>
3.64

$$$$
>  <compound>
COc1ccccc1N1CCN(C[C@H]2CN=C3c4ccccc4N=C(SC)N32)CC1

>  <log10 of Ki>
2.94

$$$$
>  <compound>
C[C@]12CC1(c1c[nH]cn1)Cc1ccccc12 (single isomer, unassigned)

>  <log10 of Ki>
-0.35

$$$$
>  <compound>
CCOc1ccc(/N=C2/NCC(c3ccco3)N2)cc1 (stereo not given)

>  <log10 of Ki>
3.42

$$$$
>  <compound>
Cc1c(Nc2ncc[nH]2)ccc2c1NCCO2

>  <log10 of Ki>
0.78

$$$$

Value of log10 of Ki reported for the compound N=C(NCc1ccco1)Nc1ccc2c(c1)OCO2 is 3.18
